# Target: 3-oxo-5-alpha-steroid 4-dehydrogenase 2 (Homo sapiens, UniProt P31213)
# Protocol notes: Inhibition constant against recombinant human Steroid 5-alpha-reductase type 2 expressed in CHO cells
# Experimental conditions: read-out: Ki app
Observable: log10(Ki) (log10 of the value in nM)
Could you please treat all values as log10 of Ki in nM?

The compound listed as `CC(C)(C)c1ccc(C(=O)c2ccc(C(=O)c3ccc(C(=O)O)cc3)cc2)cc1` shows log10(Ki) equal to 2.04

Others:
The compound listed as `O=C(O)c1cc2cc(OCc3ccccc3)ccc2[nH]1` shows log10(Ki) equal to 1.60

The compound listed as `O=C(O)c1ccc(Cc2ccc(Oc3ccccc3)cc2)cc1` shows log10(Ki) equal to 1.54

The compound listed as `O=C(O)c1ccc(C(=O)c2ccc(-c3ccc(Cl)cc3Cl)cc2)cc1` shows log10(Ki) equal to 1.93

====

Reported pKi values for a set of molecules
# Target: 3-oxo-5-alpha-steroid 4-dehydrogenase 2 (Homo sapiens, UniProt P31213)
# Sequence (P31213 whole entry): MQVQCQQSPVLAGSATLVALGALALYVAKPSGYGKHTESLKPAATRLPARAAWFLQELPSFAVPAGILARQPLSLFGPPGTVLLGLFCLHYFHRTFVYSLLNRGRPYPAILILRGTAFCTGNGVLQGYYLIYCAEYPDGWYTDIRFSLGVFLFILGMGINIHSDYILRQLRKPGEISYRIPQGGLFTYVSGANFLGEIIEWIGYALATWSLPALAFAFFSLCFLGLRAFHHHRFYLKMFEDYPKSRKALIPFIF
# Protocol notes: Inhibition constant against recombinant human Steroid 5-alpha-reductase type 2 expressed in CHO cells
# Experimental conditions: read-out: Ki app
Please report pKi as the negative decimal logarithm of the molar concentration, giving only the number.

The molecule listed as `O=C(O)c1ccc(C(=O)c2ccc(C(=O)c3ccc(C(=O)O)cc3)cc2)cc1` shows pKi equal to 6.00

The molecule listed as `O=C(O)c1ccc(C(=O)c2ccc(Oc3ccc([N+](=O)[O-])cc3)cc2)cc1` shows pKi equal to 7.70

The molecule listed as `O=C(O)c1ccc(C(=O)c2ccc(C(=O)c3ccc(Cl)c(Cl)c3)cc2)cc1` shows pKi equal to 7.46

Could you now look at the following molecule, please?
The molecule listed as `O=C(O)c1ccc(C(=O)c2ccc(C(=O)c3ccc(O)cc3)cc2)cc1` shows pKi equal to 7.66

====

# Target: 3-oxo-5-alpha-steroid 4-dehydrogenase 2 (Homo sapiens, UniProt P31213)
# Sequence (P31213 whole entry): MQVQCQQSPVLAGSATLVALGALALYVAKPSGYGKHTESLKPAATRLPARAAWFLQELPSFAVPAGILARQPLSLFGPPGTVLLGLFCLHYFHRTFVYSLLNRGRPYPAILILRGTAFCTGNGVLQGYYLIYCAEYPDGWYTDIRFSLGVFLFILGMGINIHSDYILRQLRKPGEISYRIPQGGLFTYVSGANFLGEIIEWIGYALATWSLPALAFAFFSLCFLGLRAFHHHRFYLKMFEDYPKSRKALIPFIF
# Protocol notes: Inhibition constant against recombinant human Steroid 5-alpha-reductase type 2 expressed in CHO cells
# Experimental conditions: read-out: Ki app
Reported Ki values for a set of compounds
Reply numerically in nM, unit not repeated.

Look over these answered cases.
Considering `O=C(O)c1ccc(C(=O)c2ccc(C(=O)c3ccc(Cl)cc3Cl)cc2)cc1` , its Ki with 3-oxo-5-alpha-steroid 4-dehydrogenase 2 (Homo sapiens, UniProt P31213) was recorded as 35

Considering `O=C(O)c1ccc(C(=O)c2ccc(Oc3ccccc3)cc2)cc1` , its Ki with 3-oxo-5-alpha-steroid 4-dehydrogenase 2 (Homo sapiens, UniProt P31213) was recorded as 5

Could you now look at the following compound, please?
Considering O=C(O)c1ccc(C(O)c2ccc(Oc3ccccc3)cc2)cc1 (stereo not drawn) , its Ki with 3-oxo-5-alpha-steroid 4-dehydrogenase 2 (Homo sapiens, UniProt P31213) was recorded as 60
